All figures here come from patent US20220402950A1.

target: UniProt Q9UM07; assay: RFMS Human PAD4 Functional Assay; assay type: biochemical; conditions: hPAD4 RFMS IC50, human PAD4, rapid-fire mass spectrum (RFMS) assay; 5 nM hPAD4, 250 μM BAEE
We label by threshold. Values of IC50 strictly beneath 20 nM are criterion met. Values of 20 nM and up are criterion not met.

COc1cc(C(=O)N2C[C@H]3CC[C@@H]2[C@@H]3N)cc2nc(-c3cc4cccc(CCC(C)(C)O)c4n3CC3CC3)n(C)c12 :: criterion not met
[2H]C([2H])([2H])N(C(=O)C1CC(c2cccc3cc(-c4nc5cc(C(=O)N6C[C@H]7CC[C@@H]6[C@@H]7N)cc(OC)c5n4C)n(CC4CC4)c23)C1)C([2H])([2H])[2H] (single isomer, unassigned; isomer 2) [Example 196] :: criterion not met
COc1cc(C(=O)N2C[C@H](N)C[C@@H](F)C2)cc2nc(-c3cc4cccc(-c5ccc(O)c(F)c5)c4n3CC3CC3)n(C)c12 :: criterion not met

Field: next compound
Exam item: Does COc1cc(C(=O)N2C[C@H]3CC[C@@H]2[C@@H]3N)cc2nc(-c3cc4cccc(C5CCN(C(=O)NC6CC6)CC5)c4n3CC3CC3)n(C)c12 have IC50 strictly under 20 nM?
Marked response: criterion met

* * *

target: human PAD4 (hPAD4) (Homo sapiens, UniProt Q9UM07); assay: RFMS Human PAD4 Functional Assay; type: biochemical; conditions: hPAD4 RFMS IC50, human PAD4, rapid-fire mass spectrum (RFMS) assay; 5 nM hPAD4, 250 μM BAEE
Sequence (Q9UM07 whole entry): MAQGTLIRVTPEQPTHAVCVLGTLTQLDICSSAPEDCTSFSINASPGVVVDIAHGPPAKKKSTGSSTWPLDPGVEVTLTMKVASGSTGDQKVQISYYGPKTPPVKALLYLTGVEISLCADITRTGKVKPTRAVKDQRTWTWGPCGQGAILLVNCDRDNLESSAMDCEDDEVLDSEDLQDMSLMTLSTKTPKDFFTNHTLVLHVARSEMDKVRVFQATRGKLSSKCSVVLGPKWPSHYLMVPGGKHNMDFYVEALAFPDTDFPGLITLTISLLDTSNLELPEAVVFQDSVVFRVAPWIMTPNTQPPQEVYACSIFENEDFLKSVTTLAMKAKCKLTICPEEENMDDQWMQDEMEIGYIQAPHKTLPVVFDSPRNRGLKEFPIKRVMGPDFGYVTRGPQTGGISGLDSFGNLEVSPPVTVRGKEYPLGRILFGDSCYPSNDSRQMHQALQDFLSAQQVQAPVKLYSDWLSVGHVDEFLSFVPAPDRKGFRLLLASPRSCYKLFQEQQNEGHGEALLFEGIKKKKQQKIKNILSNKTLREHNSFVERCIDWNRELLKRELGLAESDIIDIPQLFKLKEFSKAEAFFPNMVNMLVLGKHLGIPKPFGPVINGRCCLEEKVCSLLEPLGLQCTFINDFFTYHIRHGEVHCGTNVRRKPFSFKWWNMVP
metric name: pIC50
pIC50 here is simply -log10 of the concentration when that concentration is written in mol/L.

Consider the worked cases shown below.
COc1cc(C(=O)N2CC3CCC2[C@@H]3N)cc2nc(-c3cc4cccc(Nc5cc(C)nc(C)c5)c4n3CC3CC3)n(C)c12 (some centres unmarked) [Example 161] :: 6.99
COc1cc(C(=O)N2C[C@H](N)C[C@@H](F)C2)cc2nc(-c3cc4cccc(C5CCN(C(C)=O)CC5)c4n3CC3CC3)n(C)c12 [Example 227] :: 7.11
COc1cc(C(=O)N2C[C@H](N)C[C@@H](F)C2)cc2nc(-c3cc4cccc(C5CC(C(=O)N(C)C)C5)c4n3CC3CC3)n(C)c12 (single isomer, unassigned) [Example 118] :: 6.56
COc1cc(C(=O)N2C[C@H]3CC[C@@H]2[C@@H]3N)cc2nc(-c3cc4cccc(-c5ccc6c(c5)CCC(=O)N6)c4n3CC3CC3)n(C)c12 [Example 99] :: 7.42

Reported pIC50 for COc1cc(C(=O)N2C[C@H]3CC[C@@H]2[C@@H]3N)cc2nc(-c3cc4cccc(-c5ccc6c(c5)CNC6=O)c4n3CC3CC3)n(C)c12 [Example 103] was 7.60

Reported pIC50 for COc1cc(C(=O)N2C[C@H]3CC[C@@H]2[C@@H]3N)cc2nc(-c3cc4cccc(C5CC(C(N)=O)C5)c4n3CC3CC3)n(C)c12 (single isomer, unassigned) [Example 46] was 7.89

Reported pIC50 for COc1cc(C(=O)N2C[C@H]3CC[C@@H]2[C@@H]3N)cc2nc(-c3cc4cccc(Nc5cn(C)nc5C)c4n3CC3CC3(Cl)Cl)n(C)c12 (some centres unmarked) [Example 179] was 7.62

Reported pIC50 for COc1cc(C(=O)N2C[C@H]3CC[C@@H]2[C@@H]3N)cc2nc(-c3cc4cccc(C5CC(C(=O)N6CC[C@@H](O)C6)C5)c4n3CC3CC3)n(C)c12 (single isomer, unassigned) [Example 51] was 7.32

Reported pIC50 for COc1cc(C(=O)N2C[C@H]3CC[C@@H]2[C@@H]3N)cc2nc(-c3cc4cccc(C5CN(C(C)=O)C5)c4n3CC3CC3)n(Cc3cnn(C)c3)c12 [Example 210] was 7.74

Reported pIC50 for COc1cc(C(=O)N2C[C@H]3CC[C@@H]2[C@@H]3N)cc2nc(-c3cc4cccc(-c5cn(CC(C)(C)O)nc5C)c4n3CC3CC3)n(C)c12 [Example 139] was 6.74

Reported pIC50 for COc1cc(C(=O)N2C[C@H]3CC[C@@H]2[C@@H]3N)cc2nc(-c3cc4cccc(C5CC(C(=O)N6CC(F)C6)C5)c4n3CC3CC3)n(C)c12 (single isomer, unassigned; isomer 2) [Example 201] was 7.24

* * *

biological target: human PAD4 (hPAD4) (Homo sapiens, UniProt Q9UM07); assay: RFMS Human PAD4 Functional Assay; format: biochemical; conditions: hPAD4 RFMS IC50, human PAD4, rapid-fire mass spectrum (RFMS) assay; 5 nM hPAD4, 250 μM BAEE
We label by threshold. Values of IC50 strictly beneath 20 nM are Criterion met. Values of 20 nM and up are Criterion not met.

COc1cc(C(=O)N2C[C@H]3CC[C@@H]2[C@@H]3N)cc2nc(-c3cc4cccc(C5CC(C(=O)N6CCC6)C5)c4n3CC3CC3)n(C)c12 (single isomer, unassigned; isomer 2) [Example 203] :: Criterion not met

Exam item: Does COc1cc(C(=O)N2C[C@H]3CC[C@@H]2[C@@H]3N)cc2nc(-c3cc4cccc(C5CCOCC5)c4n3CC3CC3)n(C)c12 have IC50 strictly under 20 nM?
Marked response: Criterion not met

Exam item: Does COc1cc(C(=O)N2C[C@H]3CC[C@@H]2[C@@H]3N)cc2nc(-c3cc4cccc(C5CC(O)C5)c4n3CC3CC3)n(C)c12 (mixture of isomers) have IC50 strictly under 20 nM?
Marked response: Criterion not met

Exam item: Does COc1cc(C(=O)N2C[C@H]3CC[C@@H]2[C@@H]3N)cc2nc(-c3cc4cccc(C5CN(C(=O)Cc6cnccn6)C5)c4n3CC3CC3)n(C)c12 have IC50 strictly under 20 nM?
Marked response: Criterion met

Exam item: Does COc1cc(C(=O)N2C[C@H]3CC[C@@H]2[C@@H]3N)cc2nc(-c3cc4cccc(C5CN(C(=O)CCc6ccccc6)C5)c4n3CC3CC3)n(C)c12 have IC50 strictly under 20 nM?
Marked response: Criterion met

* * *

target: UniProt Q9UM07; test: RFMS Human PAD4 Functional Assay; assay type: biochemical; conditions: hPAD4 RFMS IC50, human PAD4, rapid-fire mass spectrum (RFMS) assay; 5 nM hPAD4, 250 μM BAEE
The reader will find reported IC50 values listed item by item below.
Express the result in nM but write the number alone.

Consider the worked cases shown below.
COc1cc(C(=O)N2C[C@H]3CC[C@@H]2[C@@H]3N)cc2nc(-c3cc4cccc(C5CC(C(=O)N6CCCC6)C5)c4n3CC3CC3)n(C)c12 (single isomer, unassigned) [Example 50] :: 81
COC(=O)N1CC(c2cccc3cc(-c4nc5cc(C(=O)N6C[C@H]7CC[C@@H]6[C@@H]7N)cc(OC)c5n4Cc4cnn(C)c4)n(CC4CC4)c23)C1 [Example 213] :: 21
COc1cc(C(=O)N2C[C@H]3CC[C@@H]2[C@@H]3N)cc2nc(-c3cc4cccc(C5CCN(C(C)=O)CC5)c4n3CC3CC3)n(C)c12 [Example 15] :: 20
COc1cc(C(=O)N2C[C@H]3CC[C@@H]2[C@@H]3N)cc2nc(-c3cc4cccc(CCCS(C)(=O)=O)c4n3CC3CC3)n(C)c12 [Example 27] :: 74
COc1cc(C(=O)N2C[C@H]3CC[C@@H]2[C@@H]3N)cc2nc(-c3cc4cccc(C5CCN(C(=O)OCc6ccccc6)C5)c4n3CC3CC3)n(C)c12 (some centres unmarked) [Example 28] :: 67

Known value: UniProt Q9UM07 IC50 of the molecule COc1cc(C(=O)N2C[C@H]3CC[C@@H]2[C@@H]3N)cc2nc(-c3cc4cccc(-c5ccc(O)cc5Cl)c4n3CC3CC3)n(C)c12 [Example 93] equals 53

Known value: UniProt Q9UM07 IC50 of the molecule COc1cc(C(=O)N2C[C@H](N)C[C@@H](F)C2)cc2nc(-c3cc4cccc(C5CC(C(N)=O)C5)c4n3CC3CC3)n(C)c12 (single isomer, unassigned) [Example 113] equals 52

Known value: UniProt Q9UM07 IC50 of the molecule COCC(=O)N1CCC(c2cccc3cc(-c4nc5cc(C(=O)N6C[C@H](N)C[C@@H](F)C6)cc(OC)c5n4C)n(CC4CC4)c23)CC1 [Example 226] equals 53

* * *

biological target: human PAD4 (hPAD4) (Homo sapiens); assay: RFMS Human PAD4 Functional Assay; assay type: biochemical; details: hPAD4 RFMS IC50, human PAD4, rapid-fire mass spectrum (RFMS) assay; 5 nM hPAD4, 250 μM BAEE
metric name: pIC50
pIC50 here is simply -log10 of the concentration when that concentration is written in mol/L.

Consider the worked cases shown below.
COc1cc(C(=O)N2C[C@H]3CC[C@@H]2[C@@H]3N)cc2nc(-c3cc4cccc(C5CN(C(=O)Cc6ccccn6)C5)c4n3CC3CC3)n(C)c12 :: 7.47
COc1cc(C(=O)N2C[C@H]3CC[C@@H]2[C@@H]3N)cc2nc(-c3cc4cccc(C5CN(C(C)=O)C5)c4n3C)n(Cc3cnn(C)c3)c12 :: 6.81
COc1cc(-c2cccc3cc(-c4nc5cc(C(=O)N6C[C@H]7CC[C@@H]6[C@@H]7N)cc(OC)c5n4C)n(CC4CC4)c23)ccc1O :: 7.38
COc1cc(C(=O)N2C[C@H]3CC[C@@H]2[C@@H]3N)cc2nc(-c3cc4cccc(C5(O)CCC5)c4n3CC3CC3)n(C)c12 :: 7.24
COc1cc(C(=O)N2C[C@H]3CC[C@@H]2[C@@H]3N)cc2nc(-c3cc4cccc(Nc5cnn(CC(F)F)c5)c4n3CC3CC3)n(C)c12 :: 7.18

Moving on to the next compound.
Reported pIC50 for COc1cc(C(=O)N2C[C@H]3CC[C@@H]2[C@@H]3N)cc2nc(-c3cc4cccc(NCCC(C)(C)O)c4n3CC3CC3)n(C)c12 was 6.70
